Test system: MCF7
Test: Antiproliferative activity against human MCF7 cells assessed as cell viability at 50 uM measured after 24 hrs relative to control
Format: functional
Details: read-out: Activity
MEASUREMENT_KIND: viability at 50 µM

>>> obs_value("COc1ccc2c3c(n(Cc4ccc5ccccc5c4)c2c1)C(C)=NCC3")
"< 10%"
>>> obs_value("COc1ccc2c3c(n(CCCCCn4c5cc(OC)ccc5c5ccnc(C)c54)c2c1)C(C)=NCC3")
"< 10%"
>>> obs_value("COc1ccc2c3c([nH]c2c1)C(C)=NCC3")
"~71%"
>>> obs_value("COc1ccc2c3c(n(CCCCn4c5cc(OC)ccc5c5ccnc(C)c54)c2c1)C(C)=NCC3")
"< 10%"
>>> obs_value("COc1ccc2c3ccnc(C)c3n(CCCCCn3c4cc(OC)ccc4c4ccnc(C)c43)c2c1")
"~35%"
>>> obs_value("COc1ccc2c3c(n(CCCCCCBr)c2c1)C(C)=NCC3")
"< 10%"
